test system: cancer cell lines from the cancer cell line encyclopedia (CCLE); assay: Cell line profiling (CLiP) proliferation experiment; assay type: cell-based; conditions: Homo sapiens, SF-295, cell line SF-295, central_nervous_system, astrocytoma_Grade_IV; read-out: Crossing Point
outcome measure: pIC50
Conceptually, pIC50 converts a concentration in mol/L into minus its log10.

pIC50 reported for this compound CC(C)[C@@]12C[C@@H](O)[C@@](C)(O1)[C@@H]1CC[C@@H](C)[C@H]1[C@@H]2OC(=O)/C=C/c1ccccc1 [Englerin B] : 4.70

----------
Tested on: cancer cell lines from the cancer cell line encyclopedia (CCLE)
Experiment: Cell line profiling (CLiP) proliferation experiment
Format: cell-based
Settings: Homo sapiens, IGR-1, cell line IGR-1, skin; read-out: Crossing Point
Description: Compound profiling experiment and data analysis was performed as previously described. Data was imported and plotted using the Tibco Spotfire DXP application. Lines were categorized as sensitive, intermediate and refractory as follows: Amax<-40 & Inflection Point <2 ~ Sensitive, Amax>-20 & Inflection Point >10 ~ Refractory, all else were called Intermediate. Cancer Cell line HG-U133 Plus 2 data was processed and normalized as described. […]
pIC50: −log10 of the molar value.
outcome measure: pIC50

pIC50 reported for this molecule CC(C)[C@@]12C[C@@H](O)[C@@](C)(O1)[C@@H]1CC[C@@H](C)[C@H]1[C@@H]2OC(=O)/C=C/c1ccccc1 [Englerin B] : < 4.52
